# system.under.test: human GcgR (Homo sapiens)
# Sequence (P47871 26-477): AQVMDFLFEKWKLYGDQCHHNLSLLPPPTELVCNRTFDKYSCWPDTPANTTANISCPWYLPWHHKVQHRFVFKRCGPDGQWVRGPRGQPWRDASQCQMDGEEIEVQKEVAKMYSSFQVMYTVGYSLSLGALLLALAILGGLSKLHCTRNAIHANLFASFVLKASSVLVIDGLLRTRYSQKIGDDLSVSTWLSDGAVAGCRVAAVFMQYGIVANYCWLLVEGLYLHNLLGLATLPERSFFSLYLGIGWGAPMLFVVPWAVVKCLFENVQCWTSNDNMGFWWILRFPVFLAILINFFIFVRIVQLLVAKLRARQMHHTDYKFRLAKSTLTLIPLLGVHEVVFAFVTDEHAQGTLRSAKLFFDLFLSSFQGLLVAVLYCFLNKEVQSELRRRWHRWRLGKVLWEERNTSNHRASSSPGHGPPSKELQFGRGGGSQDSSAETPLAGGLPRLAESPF
# test.details: Functional cAMP activity in the presence of 1% HSA
# Format: cell-based
# condition.parameters: read-out: cAMP Rel EC50, hGcgR
Starred links: 1 amine or outer side, 2 acyl side, 3 side chain; linkers in the order of their positions; H or OH if unused. Non-standard residues stand in square brackets, D forms with d. Groups on a side chain read outwards from the residue. *: point of attachment. C20 diacid = O=C(O)CCCCCCCCCCCCCCCCCCC(=O)*; C18 diacid = O=C(O)CCCCCCCCCCCCCCCCC(=O)*; γGlu = O=C(O)[C@H](CCC(=O)[*:2])N[*:1]; NMeY = CN[C@@H](Cc1ccc(O)cc1)C(=O)O; αMeF = C[C@](N)(Cc1ccccc1)C(=O)O; αMeL = CC(C)C[C@](C)(N)C(=O)O; Orn = NCCC[C@H](N)C(=O)O; AEEA = NCCOCCOCC(=O)O; Aib = CC(C)(N)C(=O)O
Listing of recorded EC50 by entry.
property: EC50 (nM)

>>> reported("H-Y[Aib]QGTFTSDFS[Orn][αMeL]LDKK([AEEA-γGlu-C18 diacid])AQ[Aib]AFIEYLIE[Aib]GESSGAPPPSGS-NH2 [Example 218]")
1480
>>> reported("H-Y[Aib]QGTFTSDFSK[αMeL]LDKK([AEEA-γGlu-C20 diacid])AQ[Aib]AFIEYLLE[Aib]GPSSGAPPPGGS-NH2 [Example 43]")
850
>>> reported("H-[NMeY][Aib]QGT[αMeF]TSDYSILLDKQAAK([AEEA-AEEA-γGlu-C20 diacid])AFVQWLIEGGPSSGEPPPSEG-NH2 [Example 302]")
1370
